# System: Cavia porcellus
# assay_method_text: Inhibition of leukotriene D4 induced bronchoconstriction in anesthetized guinea pigs after intravenous administration at a dose of 10 mg/kg
# Assay type: functional
endpoint: inhibition in vivo at 10 mg/kg (%)
One number for each entry, in %.

Report inhibition in vivo at 10 mg/kg for every entry below.
1. CCCc1c(OCCCCCOc2cc3c(cc2[N+](=O)[O-])CCC(C(=O)O)O3)ccc(C(C)=O)c1O (centres undefined)
2. CCCc1c(OCCCCCOc2ccc3c(c2C(C)=O)OC(C(=O)O)CC3)ccc(C(C)=O)c1O (centres undefined)
3. CCCc1c(OCCCCCOc2cc3c(cc2C(C)=O)CCC(C(=O)O)C3)ccc(C(C)=O)c1O (centres undefined)

Response:
18
19
51

Report inhibition in vivo at 10 mg/kg for every entry below.
1. COc1cc(C(=O)NS(=O)(=O)c2ccccc2)ccc1Cn1ncc2ccc(NC(=O)OC3CCCC3)cc21
2. O=C(O)CCSC(SCCC(=O)O)c1ccccc1CCCCCCCCc1ccccc1
3. CCCc1c(OCCOCCOc2cc3c(cc2C(C)=O)CCC(C(=O)O)O3)ccc(C(C)=O)c1O (centres undefined)

Response:
1. 100
2. 20
3. 50

Report inhibition in vivo at 10 mg/kg for every entry below.
1. CCCc1c(OCCCCCOc2cc3c(cc2C(C)=O)CC(C(=O)O)O3)ccc(C(C)=O)c1O (centres undefined)
2. CCCc1c(OCCCCCOc2cc3c(cc2Br)CCC(C(=O)O)O3)ccc(C(C)=O)c1O (centres undefined)

Response:
[25, 13]

Request: Fill blank: measured inhibition in vivo at 10 mg/kg of the compound CCCc1c(OCCCS(=O)(=O)c2ccc(C(=O)CCC(=O)O)cc2)ccc(C(C)=O)c1O is ____.
Response: 73
